% of control at 20 µM by entry:
Tested on: J774.A1
assay_method_text: IL6 secretion in mouse J774A.1 cells at 20 uM after 24 hrs by ELISA
test_parameters: J774.A1, 24 h
Expressed in %, but write only the number.

The cases that follow already have their % of control at 20 µM on record.
{"molecule": "C[C@]1(COC(=O)C(=O)CCC(=O)O)[C@H]2CC[C@@]3(C)OC(C4=CCOC4=O)CC3[C@]2(C)CC[C@H]1OC(=O)C(=O)CCC(=O)O (some centres not stated)", "endpoint_name": "% of control at 20 µM", "value_reported": 55}
{"molecule": "C=C1CC[C@@H]2[C@](C)(CO)[C@H](O)CC[C@@]2(C)[C@@H]1CC(OC(=O)c1cc2c(cc1[N+](=O)[O-])OCO2)C1=CCOC1=O (some centres not stated)", "endpoint_name": "% of control at 20 µM", "value_reported": 70.1}
{"molecule": "CC(=O)OC[C@@]1(C)[C@H]2CC[C@@]3(C)OC(C4=CCOC4=O)CC3[C@]2(C)CC[C@H]1OC(C)=O (some centres not stated)", "endpoint_name": "% of control at 20 µM", "value_reported": 72.9}
{"molecule": "C[C@@]12COS(=O)O[C@@H]1CC[C@@]1(C)C3CC(C4=CCOC4=O)O[C@]3(C)CC[C@H]21 (some centres not stated)", "endpoint_name": "% of control at 20 µM", "value_reported": 79.7}

INPUT: Can you look up the measured % of control at 20 µM of C=C1CC[C@@H]2[C@](C)(CO)[C@H](O)CC[C@@]2(C)[C@@H]1CC(OC(=O)CCCCC)C1=CCOC1=O (some centres not stated) for me?
OUTPUT: 82.9

INPUT: Can you look up the measured % of control at 20 µM of C=C1CC[C@@H]2[C@](C)(CO)[C@H](O)CC[C@@]2(C)[C@@H]1CC(OC(C)=O)C1=CCOC1=O (some centres not stated) for me?
OUTPUT: 95.1

INPUT: Can you look up the measured % of control at 20 µM of CCCCCC(=O)O[C@@H]1CC[C@@]2(C)C3CC(C4=CCOC4=O)O[C@]3(C)CC[C@@H]2[C@]1(C)CO (some centres not stated) for me?
OUTPUT: 69.8
